- Tested on: MCF7 complex spheroid growth, % test/control
- test.summary: Anticancer human tumor MCF7 cell line growth inhibition [Asc]; active = viability on the fitted dose curve at most 10% of control; inactive = the rest;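 note: spheroids exposed to compounds for 7 days; 100% = DMSO vehicle control wells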
- measurement.parameters: second compound 0.0316 µM; first compound 0.03 µM
Classes used: true (1) for active, false (0) for inactive

# compound, qualitative.label
data = [
    ("CCN1C(C(=O)NC23CCC(C(=O)O)(CC2)CC3)C(c2cccc(Cl)c2F)C2(C(=O)Nc3cc(Cl)ccc32)C12CCCCC2 (stereo unspecified) + Cc1c(S(C)(=O)=O)c(-c2cc(F)cc(N3CCN(c4ccc(NS(=O)(=O)c5ccc(NC(CCN6CCC(C(=O)OCCCP(=O)(O)O)CC6)CSc6ccccc6)c(S(=O)(=O)C(F)(F)F)c5)cc4)CC3)c2)c(-c2ccc(Cl)cc2)n1C(C)C", "false (0)"),
    ("NC(=O)C(=Cn1cnc(-c2cc(C(F)(F)F)cc(C(F)(F)F)c2)n1)c1cncnc1 + Cc1c(S(C)(=O)=O)c(-c2cc(F)cc(N3CCN(c4ccc(NS(=O)(=O)c5ccc(NC(CCN6CCC(C(=O)OCCCP(=O)(O)O)CC6)CSc6ccccc6)c(S(=O)(=O)C(F)(F)F)c5)cc4)CC3)c2)c(-c2ccc(Cl)cc2)n1C(C)C", "false (0)"),
    ("Cc1nc(N2CCC3(CC2)COC(C)C3N)c(CO)nc1Sc1ccnc(N)c1Cl (stereo unspecified) + Cc1c(S(C)(=O)=O)c(-c2cc(F)cc(N3CCN(c4ccc(NS(=O)(=O)c5ccc(NC(CCN6CCC(C(=O)OCCCP(=O)(O)O)CC6)CSc6ccccc6)c(S(=O)(=O)C(F)(F)F)c5)cc4)CC3)c2)c(-c2ccc(Cl)cc2)n1C(C)C", "false (0)"),
    ("NC(=O)C(=Cn1cnc(-c2cc(C(F)(F)F)cc(C(F)(F)F)c2)n1)c1cncnc1 + CNC(C)C(=O)NC1CN(S(=O)(=O)c2cccc(S(=O)(=O)N3CCC4CCC(C(=O)NC(c5ccccc5)c5ccccc5)N4C(=O)C(NC(=O)C(C)NC)C3)c2)CCC2CCC(C(=O)NC(c3ccccc3)c3ccccc3)N2C1=O", "false (0)"),
    ("Cc1nc(N2CCC3(CC2)COC(C)C3N)c(CO)nc1Sc1ccnc(N)c1Cl (stereo unspecified) + CNC(C)C(=O)NC1CN(S(=O)(=O)c2cccc(S(=O)(=O)N3CCC4CCC(C(=O)NC(c5ccccc5)c5ccccc5)N4C(=O)C(NC(=O)C(C)NC)C3)c2)CCC2CCC(C(=O)NC(c3ccccc3)c3ccccc3)N2C1=O", "false (0)"),
    ("CCN1C(C(=O)NC23CCC(C(=O)O)(CC2)CC3)C(c2cccc(Cl)c2F)C2(C(=O)Nc3cc(Cl)ccc32)C12CCCCC2 (stereo unspecified) + CNC(C)C(=O)NC1CN(S(=O)(=O)c2cccc(S(=O)(=O)N3CCC4CCC(C(=O)NC(c5ccccc5)c5ccccc5)N4C(=O)C(NC(=O)C(C)NC)C3)c2)CCC2CCC(C(=O)NC(c3ccccc3)c3ccccc3)N2C1=O", "true (1)"),
]
